Taken from patent US20230220071A1.

tested_system: T1, human transferrin receptor (BIAcore, construct not stated) (human, UniProt P02786 89-760)
T1 construct: also called huTfR
T1 sequence (P02786 89-760): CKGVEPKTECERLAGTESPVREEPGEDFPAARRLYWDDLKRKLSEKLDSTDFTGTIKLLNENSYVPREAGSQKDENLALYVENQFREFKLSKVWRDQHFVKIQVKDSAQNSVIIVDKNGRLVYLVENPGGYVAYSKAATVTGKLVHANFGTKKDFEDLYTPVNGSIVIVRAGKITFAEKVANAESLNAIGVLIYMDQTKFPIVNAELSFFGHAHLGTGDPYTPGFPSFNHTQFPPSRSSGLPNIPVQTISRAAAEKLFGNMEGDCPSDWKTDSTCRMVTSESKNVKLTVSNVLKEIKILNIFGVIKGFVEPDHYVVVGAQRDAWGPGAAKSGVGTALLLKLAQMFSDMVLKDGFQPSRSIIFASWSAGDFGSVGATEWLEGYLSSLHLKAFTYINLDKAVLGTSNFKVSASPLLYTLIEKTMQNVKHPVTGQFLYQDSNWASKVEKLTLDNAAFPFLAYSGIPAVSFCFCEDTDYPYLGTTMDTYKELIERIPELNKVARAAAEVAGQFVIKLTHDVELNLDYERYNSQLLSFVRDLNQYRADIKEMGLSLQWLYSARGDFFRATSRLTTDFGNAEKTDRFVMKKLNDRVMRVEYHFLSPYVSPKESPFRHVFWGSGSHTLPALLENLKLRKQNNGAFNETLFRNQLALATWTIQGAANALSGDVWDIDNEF
protocol_details: SPR, 25 C
quantity_kind: koff (s⁻¹)
Kindly provide the numeric value in s⁻¹ only, without the unit symbol.

# koff lookup, item clone 299 VH 0 (rb) / VL 12 (antibody, V domains shown) VH: QSMEESGGRLVTPGTPLTLTCTVSGFSLSSYAMSWVRQAPGKGLEWIGYIWSGGSTDYASWAKGRFTISKTSTTVDLKITSPTTEDTATYFCARRYGTSYPDYGDANGFDPWGPGTLVTVSS VL: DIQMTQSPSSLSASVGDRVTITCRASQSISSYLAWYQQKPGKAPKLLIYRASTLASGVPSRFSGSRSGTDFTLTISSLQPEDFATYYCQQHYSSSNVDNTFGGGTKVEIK
0.00541
